Reference for the values: the RNAGym collection of RNA variant scans (doi:10.1126/science.aae0568)

B1: tRNA (parent)
chain: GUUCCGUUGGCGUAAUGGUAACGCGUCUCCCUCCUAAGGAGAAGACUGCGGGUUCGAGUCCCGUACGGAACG

variants of: B1; assay: yeast fitness relative to wild type (ratio to wild type); higher = fitter; tRNA-Arg(CCU), competitive growth, 37 C, YPD
Variants at the floor of the assay were thinned out.
measuredParameter: yeast fitness
One number for each entry.

// worked examples, yeast fitness included
A21C C27G = 0.537
A15G C24G C66G G67A = 0.64
C5U U7G C30A A65C = 1.07
C29A A37C A45C U47A = 0.573
A15G U47C = 0.896
C27U C31U G52A = 0.639

For every listed record, write down its yeast fitness.
1. G12C A37C A40U C46U
2. A36G A45C C55G G58C
3. C29G C60U
4. A57G A69U

RESULT:
0.59
0.689
0.576
0.943
